- targetSystem: 5-lipoxygenase (Rattus norvegicus)
- Construct: 5-HETE Production in Whole Cells; endogenous in cells
- protocol: Inhibition of 5-lipoxygenase (5-HETE production) in whole RBL-1 cells
- recordedConditions: in vitro, RBL-1 whole cells, A23187 1.9 μM, 55 μM 14C-arachidonic acid, 37° C; highest concentration tested 10 μM; read-out: IC50 (lipoxygenase inhibitory activity)
pIC50: −log10 of the molar value.
Listing: pIC50 of selected molecules

- molecule: "COc1ccc2cc(C(=O)CCCCC(=O)N(O)c3ccccc3)ccc2c1 [Example 22]"
  rel: "="
  pIC50: 7.00
- molecule: "CCCCN(O)C(=O)CCCCC(=O)c1ccc2cc(OC)ccc2c1 [Example 18]"
  rel: "="
  pIC50: 6.43
- molecule: "C=CCOc1ccc2cc(C(=O)CCCCC(=O)OCC)ccc2c1 [Example 12]"
  rel: "<"
  pIC50: 5.00
- molecule: "CCOC(=O)CCCCC(=O)c1ccc2cc(O)ccc2c1 [Example 8]"
  rel: "<"
  pIC50: 5.00
- molecule: "COc1ccc2cc(C(=O)CCCCC(=O)N(O)C(C)(C)C)ccc2c1 [Example 20]"
  rel: "="
  pIC50: 6.35
- molecule: "COc1ccc2cc(C(=O)CCCCC(=O)N(O)C3CCCCC3)ccc2c1 [Example 21]"
  rel: "="
  pIC50: 6.40
- molecule: "COc1ccc2cc(C(=O)CCCCC(=O)N(C)OC)ccc2c1 [Example 23]"
  rel: "<"
  pIC50: 5.00
- molecule: "COc1ccc2cc(C(=O)CCCCC(=O)N(C)O)ccc2c1 [Example 15]"
  rel: "="
  pIC50: 6.60
- molecule: "CCOC(=O)CCCCC(=O)c1ccc2cc(OC)ccc2c1 [Example 2]"
  rel: "<"
  pIC50: 5.00
- molecule: "CCN(O)C(=O)CCCCC(=O)c1ccc2cc(OC)ccc2c1 [Example 17]"
  rel: "="
  pIC50: 6.96

* * *

Reported pIC50 values follow for various compounds
- targetSystem: 5-lipoxygenase (Rattus norvegicus, UniProt P12527)
- Construct: 5-HETE Production in Whole Cells; endogenous in cells
- Sequence (P12527 whole entry): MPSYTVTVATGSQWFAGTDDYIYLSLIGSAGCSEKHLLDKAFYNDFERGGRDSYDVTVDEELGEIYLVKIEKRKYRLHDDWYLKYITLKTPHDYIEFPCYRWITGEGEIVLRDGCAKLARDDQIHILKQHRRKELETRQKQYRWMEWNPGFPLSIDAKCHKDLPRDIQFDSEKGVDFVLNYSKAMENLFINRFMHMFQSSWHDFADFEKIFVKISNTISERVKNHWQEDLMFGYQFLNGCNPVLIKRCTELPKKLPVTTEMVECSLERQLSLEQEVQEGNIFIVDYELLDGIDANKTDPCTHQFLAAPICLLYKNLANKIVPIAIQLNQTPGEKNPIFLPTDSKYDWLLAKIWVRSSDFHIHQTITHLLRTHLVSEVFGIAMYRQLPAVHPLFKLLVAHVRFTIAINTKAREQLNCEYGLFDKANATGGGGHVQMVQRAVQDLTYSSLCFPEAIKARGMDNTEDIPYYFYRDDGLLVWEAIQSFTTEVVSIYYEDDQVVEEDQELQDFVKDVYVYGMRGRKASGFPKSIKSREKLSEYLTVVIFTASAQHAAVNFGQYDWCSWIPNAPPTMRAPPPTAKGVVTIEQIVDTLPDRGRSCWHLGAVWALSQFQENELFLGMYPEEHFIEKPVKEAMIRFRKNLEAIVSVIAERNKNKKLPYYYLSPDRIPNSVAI
- protocol: Inhibition of 5-lipoxygenase (5-HETE production) in whole RBL-1 cells
- recordedConditions: in vitro, RBL-1 whole cells, A23187 1.9 μM, 55 μM 14C-arachidonic acid, 37° C; highest concentration tested 10 μM; read-out: IC50 (lipoxygenase inhibitory activity)
pIC50: −log10 of the molar value.
measurementKind: pIC50

- sampleSmiles: "COc1ccc2cc(C(=O)CCCCC(=O)NO)ccc2c1"
  reportedMeasurement: 5.00
- sampleSmiles: "COc1ccc2cc(C(=O)CCCCC(=O)N(O)C(C)C)ccc2c1"
  reportedMeasurement: 6.92
- sampleSmiles: "CCCCCCCN(O)C(=O)CCCCC(=O)c1ccc2cc(OC)ccc2c1"
  reportedMeasurement: 5.80

* * *

- System: Lewis strain laboratory rats
- protocol: In vivo alleviation of inflammation: Mycobacterium butyricum-induced polyarthritis, inhibition of paw volume increase
- Parameters: species or system rat (Lewis strain)
- recordedConditions: Rattus norvegicus, po; 50 mg/kg p.o., five consecutive days from day 10; paw volume about 4 h after final dose; read-out: % Inhibition Oral Dosage (percentage inhibition of pad swelling)
Would you mind classing the entries by inhibition in vivo at 50 mg/kg? Ranges: bin 1 (below 30%), bin 2 (30% to below 50%), bin 3 (50% or more)

- sampleSmiles: "COc1ccc2cc(C(=O)CCCCCCC(=O)O)ccc2c1"
  categoryLabel: "bin 2"
- sampleSmiles: "CCOC(=O)CCCCC(=O)c1ccc2cc(O)ccc2c1"
  categoryLabel: "bin 1"
- sampleSmiles: "CCOC(=O)CCCCCCC(=O)c1ccc2cc(OC)ccc2c1"
  categoryLabel: "bin 2"
- sampleSmiles: "COc1ccc2cc(C(=O)CCCCC(=O)N(C)OC)ccc2c1"
  categoryLabel: "bin 3"
- sampleSmiles: "CCN(O)C(=O)CCCCC(=O)c1ccc2cc(OC)ccc2c1"
  categoryLabel: "bin 1"
- sampleSmiles: "C=CCOc1ccc2cc(C(=O)CCCCC(=O)OCC)ccc2c1"
  categoryLabel: "bin 2"
- sampleSmiles: "COC(=O)CCCCCCC(=O)c1ccc2cc(OC)ccc2c1"
  categoryLabel: "bin 3"
- sampleSmiles: "COc1ccc2cc(C(=O)CCCCC(=O)N(O)c3ccccc3)ccc2c1"
  categoryLabel: "bin 1"
- sampleSmiles: "C#CCOc1ccc2cc(C(=O)CCCCC(=O)OCC)ccc2c1"
  categoryLabel: "bin 1"
- sampleSmiles: "COc1ccc2cc(C(=O)CCCCC(=O)N(O)C3CCCCC3)ccc2c1"
  categoryLabel: "bin 2"

Origin of measurements: patent US4681894A
